# ASSAYED_SYSTEM: Luciferin 4-monooxygenase (Photinus pyralis) (UniProt P08659)
# Sequence (P08659 whole entry, looked up): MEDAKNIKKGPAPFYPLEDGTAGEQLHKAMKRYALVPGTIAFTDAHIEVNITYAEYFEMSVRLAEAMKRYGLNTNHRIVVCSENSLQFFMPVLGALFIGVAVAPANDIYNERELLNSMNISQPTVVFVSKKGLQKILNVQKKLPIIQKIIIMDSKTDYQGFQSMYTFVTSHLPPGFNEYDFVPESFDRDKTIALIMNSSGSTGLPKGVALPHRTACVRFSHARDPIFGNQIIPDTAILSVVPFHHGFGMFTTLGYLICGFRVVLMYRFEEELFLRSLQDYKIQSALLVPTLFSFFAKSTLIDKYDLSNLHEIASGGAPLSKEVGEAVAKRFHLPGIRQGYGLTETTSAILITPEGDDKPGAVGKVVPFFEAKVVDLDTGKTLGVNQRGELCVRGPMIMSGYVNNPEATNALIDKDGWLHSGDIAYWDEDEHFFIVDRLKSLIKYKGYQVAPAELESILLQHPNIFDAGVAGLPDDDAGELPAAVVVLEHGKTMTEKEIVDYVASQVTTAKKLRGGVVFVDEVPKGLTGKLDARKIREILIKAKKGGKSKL
# EXPERIMENT_NOTES: CCTE_Simmons_QuantiLum_inhib_2: CCTE's Firefly Luciferase Inhibition Assay, Simmons Lab (AID 2283767)
Inconclusive results are not listed. Calls of active or inactive are those of the source. The calls were made as follows: active = hit-call score of the fitted dose curve at least 0.9, where 1 is the maximum; inconclusive = response in the unintended direction; inactive = score below 0.9.
In this exercise, the only acceptable responses are yes (1) for active, no (0) for inactive

1) Nc1ccc(Cc2ccc(N)cc2)cc1    no (0)
2) Cc1ccc(N=C=O)cc1N=C=O    yes (1)
3) CN(C)[C@@H]1C(=O)C(C(N)=O)=C(O)[C@@]2(O)C(=O)C3=C(O)c4c(O)cccc4[C@@](C)(O)[C@H]3C[C@@H]12    no (0)
4) C[C@]12C=CC3=C4CCC(=O)C=C4CC[C@H]3[C@@H]1CC[C@@H]2O    no (0)
5) CN(C)c1ccccc1    no (0)

Just curious, what result did `Oc1ccc2ccc3cccc4ccc1c2c34` get here?
yes (1)

Just curious, what result did `Cc1cc(N=Nc2ccccc2C)ccc1N` get here?
yes (1)

Just curious, what result did `c1ccc(NNc2ccccc2)cc1` get here?
yes (1)

Just curious, what result did `Nc1ccc(Cl)cc1N` get here?
yes (1)
